test: Measurement of LogP values by HPLC on reversed phase columns (EEC directive 79/831 Annex V.A8); format: physicochemical
Measured attribute: LogP [a]

q: # lookup: LogP [a] of CN1C2CCC1CC(NC(=O)c1snc(Cl)c1Cl)C2 (stereo not drawn)
a: 0.66^[a]

q: Then `COc1ccc(CNc2nsc(C(N)=O)c2Cl)cc1` ?
a: 1.94^[a]

q: Can you handle CC1CCc2ccccc2N1C(=O)c1snc(N)c1Cl (stereo not drawn) next?
a: 2.48

q: And `Cc1cccc2c1N(C(=O)c1snc(N)c1Cl)CCC2` ?
a: 2.43

q: Item: `O=C(NCc1ccccc1Cl)c1snc(N=C(c2ccccc2)c2ccccc2)c1Cl`
a: 4.89^[a]

q: Would you kindly repeat that for `O=C(NCCC1CCCCC1)c1snc(N=C(c2ccccc2)c2ccccc2)c1Cl` ?
a: 5.92^[a]

q: // query: Cc1ccc(S(C)=Nc2nsc(C(=O)NCc3ccc(F)cc3F)c2F)cc1 (stereo not drawn)
a: 2.74^[a]

q: And the next one, CC1(C)C2CCC1(C)C(NC(=O)c1snc(Cl)c1Cl)C2 (stereo not drawn) [E-II-017] ?
a: 5.02

q: Would you kindly repeat that for `CCOC(=O)c1snc(NC(=O)c2ccccc2)c1Cl` ?
a: 2.45^[a]

q: Now consider `O=C(Nc1ccccc1)c1snc(N=C(c2ccccc2)c2ccccc2)c1Cl` .
a: 4.62^[a]

q: Another: `C[C@H](NC(=O)c1snc(Cl)c1Cl)C1CCCCC1`
a: 4.56^[a]

q: Also check `COc1ccc(CNc2cc(C(=O)OC(C)C)sn2)cc1`
a: 3.63^[a]

q: Now this one: CCCS(CC)=Nc1nsc(C(=O)NCc2ccc(F)cc2F)c1F (stereo not drawn)
a: 1.77^[a]

q: What do you get for O=C(NC(Cc1ccccc1)C1CC=CCC1)c1snc(Cl)c1Cl (stereo not drawn) ?
a: 4.87

q: Follow-up item: CC1(C)C2CCC1(C)C(NC(=O)c1snc(Cl)c1Cl)C2 (stereo not drawn) [E-II-022]
a: 5.07

q: Now consider `O=C(NCC1CCCCC1)c1snc(N=S2CCCC2)c1Cl` and answer again.
a: 2.15^[a]

q: Next: `CCOC(=O)c1snc(NCc2ccc(OC)cc2)c1Cl`
a: 3.87^[a]

q: Would you mind doing `CS(C)=Nc1nsc(C(=O)NCC2CCCCC2)c1F` as well?
a: 1.53^[a]

q: // query: O=C(NCC1CCCOC1)c1snc(N=C(c2ccccc2)c2ccccc2)c1Cl (stereo not drawn)
a: 3.71^[a]

q: Also need `O=C(O)c1snc(N(Cc2ccccc2)Cc2ccccc2)c1Br` , thanks.
a: 3.83^[a]

q: Same question, O=C(NCC1CCC(C(=O)NC2CC2)CC1)c1snc(Cl)c1Cl (stereo not drawn) this time
a: 2.21^[a]

q: And the next one, `CC(C)(NC(=O)c1snc(Cl)c1Cl)C1CCCCC1` ?
a: 5.39^[a]

q: Okay, and `CC(C)OC(=O)c1snc(N(C(=O)OC(C)(C)C)C(=O)OC(C)(C)C)c1Cl` ?
a: 5.00^[a]

q: Try this compound next: `O=C(NCc1ccccc1Cl)c1snc(Cl)c1Cl`
a: 3.52^[a]

q: What about `CS(C)=Nc1nsc(C(=O)NCc2ccc(F)c(F)c2F)c1Cl` ?
a: 1.57^[a]

q: Another compound to check: `CCOC(=O)c1snc(N(C(C)=O)C(C)=O)c1Cl`
a: 2.47^[a]

q: Repeat for the following compound: `COc1ccc(CNc2nsc(C(=O)N3CCCc4cc(OC)ccc43)c2Cl)cc1`
a: 3.72^[a]

q: Then what about the compound `CS(C)(=O)=Nc1nsc(C(=O)NCC2CCCCC2)c1Cl` ?
a: 2.47^[a]

q: Same lookup for `COc1ccc(CNc2nsc(C(=O)N3CCc4ccccc43)c2Cl)cc1` , please.
a: 3.83

q: Item: COc1ccc(CNc2nsc(C(=O)N3c4ccccc4CCC3C)c2Cl)cc1 (stereo not drawn)
a: 4.14

q: Follow-up entry: `Nc1nsc(C(=O)N2CCc3cc(F)ccc3C2)c1Cl`
a: 2.09

q: Moving on to O=C(NCC1CCCCO1)c1snc(N=C(c2ccccc2)c2ccccc2)c1Cl (stereo not drawn)
a: 4.55^[a]

q: Another compound to check: `CS(C)=Nc1nsc(C(=O)NCc2ccc(F)c(F)c2F)c1F`
a: 1.39^[a]

q: Same again, this time with `Cc1ccc(C(C)(C)C)c(CN(C(=O)c2snc(Cl)c2Cl)C2CC2)c1`
a: 5.65^[a]

q: Then `COc1ccc(CNc2nsc(C(=O)N3CCc4c(Cl)ccc(Cl)c4C3)c2Cl)cc1` ?
a: 4.66

q: Same question for `COc1ccc(CN(Cc2ccc(C)cc2)c2nscc2Cl)cc1` please.
a: 5.48^[a]
